Source of measurements: paper PMC10726355

Biological target: SmBRD3(2) (Schistosoma mansoni, UniProt A0A5K4ESD7)
Sequence (A0A5K4ESD7 entry or part of it): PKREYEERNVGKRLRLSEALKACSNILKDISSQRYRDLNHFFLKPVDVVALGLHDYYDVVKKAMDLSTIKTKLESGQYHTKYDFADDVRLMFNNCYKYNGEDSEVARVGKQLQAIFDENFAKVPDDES
Experiment: biochemical
Assay type: binding
Settings: ITC stoichiometry; Repeat 2
Measurement kind: N number, binding to SmBRD3(2), Repeat 2
No unit in the answer, only the number.

Solved entries (count: 5):
CC(=O)N1c2ccc(-c3ccc(C(=O)O)cc3)cc2[C@H](Nc2ccc3ccoc3c2)C[C@@H]1C = 1.49
CC(=O)N1c2ccc(-c3ccc(C(=O)O)cc3)cc2[C@H](Nc2ccc3ccsc3c2)C[C@@H]1C = 1.57
CC(=O)N1c2ccc(-c3ccc(C(=O)O)cc3)cc2[C@H](Nc2ccc3[nH]ccc3c2)C[C@@H]1C = 1.71
CC(=O)N1c2ccc(-c3ccc(C(=O)O)cc3)cc2[C@H](Nc2ccc3ncccc3c2)C[C@@H]1C = 1.51
CC(=O)N1c2ccc(-c3ccc(C(=O)O)cc3)cc2[C@H](Nc2ccc3sccc3c2)C[C@@H]1C = 1.55

--- query ---
Please report the recorded N number, binding to SmBRD3(2), Repeat 2 for CC(=O)N1c2ccc(-c3ccc(C(=O)O)cc3)cc2[C@H](Nc2ccc3ncsc3c2)C[C@@H]1C .
1.54

* * *

Test system: S. mansoni schistosomula
Experiment: Ex vivo schistosomula screening (Roboworm high content imaging)
Parameters: species or system Schistosoma mansoni
Conditions: Schistosoma mansoni; ethyl esters (R=Et); 72 h; 95% CI in brackets; read-out: Schistosomla Movement EC50
Measurement kind: EC50 (µM)
The reply should be a number in µM, with the unit left off.

Below: 3 compounds and their reported EC50.
CCOC(=O)c1ccc(-c2ccc3c(c2)[C@H](Nc2ccc4[nH]ccc4c2)C[C@H](C)N3C(C)=O)cc1 [Compound 20] = 1.81
CCOC(=O)c1ccc(-c2ccc3c(c2)[C@H](Nc2ccc4ccoc4c2)C[C@H](C)N3C(C)=O)cc1 [Compound 18] = 3.92
CCOC(=O)c1ccc(-c2ccc3c(c2)[C@H](Nc2ccc4ncccc4c2)C[C@H](C)N3C(C)=O)cc1 [Compound 22] = 3.3

API: the following record is the query input.
Please look up its EC50: CCOC(=O)c1ccc(-c2ccc3c(c2)[C@H](Nc2ccc4ncsc4c2)C[C@H](C)N3C(C)=O)cc1 [Compound 21]
2.85

* * *

Target: SmBRD3(2) (Schistosoma mansoni)
Assay: biochemical
Assay type: binding
Details: ITC; read-out: SmBRD3(2) pKd (converted)
Measurement kind: Kd (nM)
Give the value, in units of nM, as a plain number.

CC(=O)N1c2ccc(-c3ccc(C(=O)O)cc3)cc2[C@H](Nc2ccc3ncccc3c2)C[C@@H]1C [Compound 15] = 398
CC(=O)N1c2ccc(-c3ccc(C(=O)O)cc3)cc2[C@H](Nc2ccc3ccoc3c2)C[C@@H]1C [Compound 11] = 1260
CC(=O)N1c2ccc(-c3ccc(C(=O)O)cc3)cc2[C@H](Nc2ccc3[nH]ccc3c2)C[C@@H]1C [Compound 13] = 631

What value of Kd has been reported for the following compound? CC(=O)N1c2ccc(-c3ccc(C(=O)O)cc3)cc2[C@H](Nc2ccc3sccc3c2)C[C@@H]1C [Compound 12]
501

// returns reported Kd for input CC(=O)N1c2ccc(-c3ccc(C(=O)O)cc3)cc2[C@H](Nc2ccc3ccsc3c2)C[C@@H]1C [Compound 9]
631

Record request: Kd value, item CC(=O)N1c2ccc(-c3ccc(C(=O)O)cc3)cc2[C@H](Nc2ccc3ncsc3c2)C[C@@H]1C [Compound 14]
1260
